Cited source: patent US4387238A

biological target: papain (Carica papaya, UniProt P00784); construct: purchased Sigma Chem. Co; experiment: Papain inhibitory activity (milk casein proteolysis); type: biochemical; set-up: unit not given beside the values; settings: amount of inhibitor for 50% inhibition; pH 6.8, 40° C., casein substrate
Sequence (P00784 134-345): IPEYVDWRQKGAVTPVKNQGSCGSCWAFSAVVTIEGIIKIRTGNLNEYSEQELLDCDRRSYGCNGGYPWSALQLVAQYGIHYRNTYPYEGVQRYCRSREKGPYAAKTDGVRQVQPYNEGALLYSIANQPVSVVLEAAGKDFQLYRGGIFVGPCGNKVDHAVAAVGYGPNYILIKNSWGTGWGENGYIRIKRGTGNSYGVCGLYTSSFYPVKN
Reported metric: ID50

Reference set (2 entries):
- CCOC(=O)[C@@H]1O[C@H]1C(=O)N(C)C (relative stereo) [Compound No. 85, ethyl N,N-dimethyl-2,3-epoxysuccinamate]: 39.50 γ
- CNC(=O)[C@H]1O[C@@H]1C(=O)Oc1ccccc1 (relative stereo) [Compound No. 84, phenyl N-methyl-2,3-epoxysuccinamate]: 12.65 γ

# get_value(readout='ID50', item= O=C(O)C1OC1C(=O)N1CCCC1C(=O)O (stereo not shown) [Compound No. 99] ) 0.104 γ

Another compound to look at: CCCCOC(=O)[C@H]1O[C@@H]1C(=O)Nc1ccccc1 (relative stereo) [Compound No. 52, butyl N-phenyl-2,3-epoxysuccinamate] 5.32 γ

Another compound to look at: O=C(OCCCC1CCCC1)[C@@H]1O[C@H]1C(=O)N1CCCC1 (relative stereo) [Compound No. 79] 36.25 γ

Another compound to look at: CCOC(=O)[C@@H]1O[C@H]1C(=O)N1CCCC1 (relative stereo) [Compound No. 73] 128.50 γ

Another compound to look at: CCOC(=O)[C@@H]1O[C@H]1C(=O)N1CCCCC1 (relative stereo) [Compound No. 77] 145.21 γ

###

biological target: papain (Carica papaya); construct: purchased Sigma Chem. Co; test: Papain inhibitory activity (milk casein proteolysis); type: biochemical; set-up: unit not given beside the values; conditions: amount of inhibitor for 50% inhibition; pH 6.8, 40° C., casein substrate
Reported metric: ID50

- C=CCOC(=O)[C@@H]1O[C@H]1C(=O)Nc1ccccc1 (relative stereo) [Compound No. 30, allyl N-phenyl-2,3-epoxysuccinamate]: 3.68 γ
- CC(C)CCOC(=O)[C@@H]1O[C@H]1C(=O)N(C)C (relative stereo): 50.25 γ

# get_value(readout='ID50', item= O=C(Nc1ccccc1)[C@@H]1O[C@H]1C(=O)Oc1ccccc1 (relative stereo) [Compound No. 28, phenyl N-phenyl-2,3-epoxysuccinamate] ) 6.41 γ

###

molecular target: papain (Carica papaya, UniProt P00784); construct: purchased Sigma Chem. Co; experiment: Papain inhibitory activity (milk casein proteolysis); format: biochemical; design: unit not given beside the values; details: amount of inhibitor for 50% inhibition; pH 6.8, 40° C., casein substrate
Reported metric: ID50

- O=C(O)[C@@H]1O[C@H]1C(=O)N1CCCCC1 (relative stereo): 4.05 γ

# get_value(readout='ID50', item= C=CCOC(=O)[C@H]1O[C@@H]1C(=O)NCCc1ccccc1 (relative stereo) [Compound No. 71, Allyl N-phenethyl-2,3-epoxysuccinamate] ) 4.13 γ

Another compound to look at: CCOC(=O)C1OC1C(=O)N1CCCC1C(=O)OC (stereo not shown) 98.10 γ

Another compound to look at: CNC(=O)[C@@H]1O[C@H]1C(=O)OCCC(C)C (relative stereo) [Compound No. 89, Isoamyl N-methyl-2,3-epoxysuccinamate] 14.81 γ

Another compound to look at: CCOC(=O)[C@@H]1O[C@H]1C(=O)Nc1ccccc1 (relative stereo) [Compound No. 1, ethyl N-phenyl-2,3-epoxysuccinamate] 24.04 γ

Another compound to look at: CCOC(=O)[C@@H]1O[C@H]1C(=O)N1CCC(C)CC1 (relative stereo) 79.53 γ

Another compound to look at: CCOC(=O)[C@H]1O[C@@H]1C(N)=O (relative stereo) [Compound No. 55, ethyl 2,3-epoxysuccinamate] 3.14 γ
